system: SF-295; assay: NCI tumour cell line growth inhibition, 48 h
Active and inactive are the calls of the source. Rule as the data show it: active = GI50 up to about 1.1 µM and inactive = higher. Starred links: 1 amine or outer side, 2 acyl side, 3 side chain; linkers in the order of their positions; H or OH if unused. Positions of bridges follow the written chain, without caps; N, C: chain ends. Non-standard residues stand in square brackets, D forms with d. Residues, ends and D or L forms follow the SMILES beside them. ξ: configuration not given here. X37 = CC[C@H](C)[C@@H](N[*:1])[C@@H](O)CC(=O)O[C@H](C(=O)[C@H](C)C(=O)[*:2])C(C)C; NMeY = CN[C@@H](Cc1ccc(O)cc1)C(=O)O; dNMeL = CN[C@H](CC(C)C)C(=O)O; ξΔPro = O=C(O)C1C=CCN1
Return exactly one item of active, inactive

These solved cases illustrate the format of a correct answer.
MOLECULE: Oc1ccc([Te]CCNCC[Te]c2ccc(O)cc2)cc1
MEASURED_TARGET: SF-295
ASSIGNED_LABEL: inactive

MOLECULE: COc1ccc(C2c3cc4c(cc3OC(NNC(N)=O)C2C)OCO4)cc1 (stereo unspecified)
MEASURED_TARGET: SF-295
ASSIGNED_LABEL: inactive

MOLECULE: CC[C@H](C)[C@H]1NC(=O)[C@@H](NC(=O)[C@@H](CC(C)C)N(C)C(=O)C2C=CCN2)[C@@H](C)OC(=O)[C@H](Cc2ccc(OC)cc2)N(C)C(=O)[C@@H]2CCCN2C(=O)[C@H](CC(C)C)NC(=O)[C@@H](C)C(=O)[C@H](C(C)C)OC(=O)C[C@@H]1O (stereo partly specified) (H-[ξΔPro][dNMeL]T[X37]LP[NMeY](Me); ester 3-C)
MEASURED_TARGET: SF-295
ASSIGNED_LABEL: active

Problem: Please indicate how the test categorized CC1=Nc2ccccc2C1C(Cc1ccccc1N)c1c(C)[nH]c2ccccc12 (stereo unspecified) .
Solution: inactive

Problem: Any idea what this test logged for N=C(N)NS(=O)(=O)c1ccc(NC(=O)c2cccc3c(NNc4ccc(C(=O)O)cc4)c4ccccc4nc23)cc1 ?
Solution: inactive
